Data provenance: the Human Domainome abundance scans (Beltran et al. 2025)

B1: Membrane-associated guanylate kinase, WW and PDZ domain-containing protein 2, residues 601 to 682; numbered along this chain, Q86UL8 (parent)
chain: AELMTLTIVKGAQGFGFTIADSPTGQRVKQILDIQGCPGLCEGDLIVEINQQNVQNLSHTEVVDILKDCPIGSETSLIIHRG

variants of: B1; test: abundance fitness (aPCA) (normalised: wild type 0, dead -1); higher = more abundant; growth selection in yeast, the domain comes from the species named; details: Homo sapiens
Class 1 (yes): abundance fitness at least -0.2. Class 0 (no): abundance fitness below -0.2.

VAR	GROUP_LABEL
Q52F	1 (yes)
G43M	0 (no)
P23V	0 (no)
Q26W	1 (yes)

In: I'd appreciate it if you could say whether "K29L" has abundance fitness at least equal to -0.2.
Out: 0 (no)

In: I'd appreciate it if you could say whether "F17Q" has abundance fitness at least equal to -0.2.
Out: 0 (no)

In: I'd appreciate it if you could say whether "F17P" has abundance fitness at least equal to -0.2.
Out: 0 (no)

In: I'd appreciate it if you could say whether "V28Q" has abundance fitness at least equal to -0.2.
Out: 0 (no)

In: I'd appreciate it if you could say whether "S58E" has abundance fitness at least equal to -0.2.
Out: 1 (yes)

In: I'd appreciate it if you could say whether "I65G" has abundance fitness at least equal to -0.2.
Out: 0 (no)

In: I'd appreciate it if you could say whether "S58N" has abundance fitness at least equal to -0.2.
Out: 1 (yes)
